The reader will find reported IC50 values listed item by item below.
- MEASUREMENT TARGET: Nanoluciferase-BRD9 fusion protein (Homo sapiens (Human), UniProt Q9H8M2)
- Sequence (Q9H8M2 whole entry, the tested form may be a part): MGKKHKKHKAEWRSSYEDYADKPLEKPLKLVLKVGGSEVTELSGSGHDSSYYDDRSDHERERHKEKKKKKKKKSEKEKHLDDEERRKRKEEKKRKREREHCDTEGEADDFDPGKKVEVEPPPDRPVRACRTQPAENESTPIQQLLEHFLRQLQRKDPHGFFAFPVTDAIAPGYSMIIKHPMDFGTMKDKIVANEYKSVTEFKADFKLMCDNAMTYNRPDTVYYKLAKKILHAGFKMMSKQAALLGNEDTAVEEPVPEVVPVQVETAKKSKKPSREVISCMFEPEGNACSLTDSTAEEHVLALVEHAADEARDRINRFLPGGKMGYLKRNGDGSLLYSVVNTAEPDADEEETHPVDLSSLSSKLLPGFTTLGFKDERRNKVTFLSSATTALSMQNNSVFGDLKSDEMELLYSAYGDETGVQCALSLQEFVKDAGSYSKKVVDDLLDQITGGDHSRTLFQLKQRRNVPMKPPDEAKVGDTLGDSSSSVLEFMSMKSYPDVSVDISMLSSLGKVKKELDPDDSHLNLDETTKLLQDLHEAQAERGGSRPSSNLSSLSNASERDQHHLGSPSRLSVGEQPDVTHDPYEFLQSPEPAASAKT
- TEST: SYO1 BRD9 NanoLuc degradation assay
- Assay type: cell-based
- TEST CONTEXT: Table 5A; SYO-1 cells expressing 3×FLAG-NLuc-BRD9, 6 hours
PROPERTY: IC50

INSERT INTO measurements (compound, endpoint_value) VALUES
  ('COc1cc(-c2cn(C)c(=O)c3cnccc23)cc(OC)c1CN(C)CC(=O)NCCCCN1CCOC2(CCN(c3ccc4c(c3)C(=O)N(C3CCC(=O)NC3=O)C4=O)CC2)C1 (centres unmarked) [Compound D73, formic acid]', '< 10 nM'),
  ('COc1cc(-c2cn(C)c(=O)c3cc(O)ccc23)cc(OC)c1CN1CCC2(CC1)CN(C(=O)CCCOc1cccc3c1C(=O)N(C1CCC(=O)NC1=O)C3=O)CCO2 (centres unmarked) [Compound D54, formic acid]', '10 to 100 nM'),
  ('COc1cc(-c2cn(C)c(=O)c3cnccc23)cc(OC)c1CN1CCC2(CC1)CN(C(=O)COc1ccc3c(c1)C(=O)N(C1CCC(=O)NC1=O)C3=O)CCO2 (centres unmarked) [Compound D64, formic acid]', '100 to 1000 nM'),
  ('COc1cc(-c2cn(C)c(=O)c3cnccc23)cc(OC)c1CN1CC(C(=O)NCCCCCCCCNc2cccc3c2C(=O)N(C2CCC(=O)NC2=O)C3=O)C1 (centres unmarked) [Compound D1, formic acid]', '< 10 nM'),
  ('COc1cc(-c2cn(C)c(=O)c3cnccc23)cc(OC)c1CN1CC2C1CCN2C(=O)CCOCCOc1ccc2c(c1)C(=O)N(C1CCC(=O)NC1=O)C2=O (centres unmarked) [Compound D128]', '< 10 nM');

* * *

- MEASUREMENT TARGET: BRD9 bromodomain (Homo sapiens (Human))
- TEST: BRD9 bromodomain TR-FRET competition binding assay
- TEST CONTEXT: Table 4; competition with biotinylated ligand, 3 nM Flag-BRD9, 90 minutes
- Description: Procedure: His-Flag-BRD9 (P133-K239; Swiss Prot Q9H8M2; SEQ ID NO:1 mgsshhhhhhenlyfq/gdykddddkgslevlfqg/[…] […]) was cloned, expressed, purified, and then treated with TEV protease. Cleaved His tag was removed by purification. The binding of a biotinylated small molecule ligand of BRD9 was assessed via the LANCE® TR-FRET platform (PerkinElmer), and the compounds were assayed for inhibitory activity against this interaction. […]
The reader will find reported IC50 values listed item by item below.
PROPERTY: IC50

INSERT INTO assay_data (compound, property, endpoint_value) VALUES
  ('COc1cc(-c2cn(C)c(=O)c3cnccc23)cc(OC)c1CN(C)CC12CC(NC(=O)CCOCCOCCNc3cccc4c3C(=O)N(C3CCC(=O)NC3=O)C4=O)(C1)C2 (centres unmarked) [Compound D68, formic acid]', 'IC50', '< 10 nM'),
  ('COc1cc(-c2cn(C)c(=O)c3cnccc23)cc(OC)c1CN(C)CC12CC(NC(=O)CCCCOc3cccc4c3C(=O)N(C3CCC(=O)NC3=O)C4=O)(C1)C2 (centres unmarked) [Compound D69]', 'IC50', '< 10 nM'),
  ('COc1cc(-c2cn(C)c(=O)c3cnccc23)cc(OC)c1CN1CCN(C(=O)CCCOc2cccc3c2C(=O)N(C2CCC(=O)NC2=O)C3=O)CC1 (centres unmarked) [Compound D33]', 'IC50', '< 10 nM'),
  ('COc1cc(-c2cn(C)c(=O)c3cnccc23)cc(OC)c1CN1CC(C(=O)NCCCCCCCCNC(=O)COc2cccc3c2C(=O)N(C2CCC(=O)NC2=O)C3=O)C1 (centres unmarked) [Compound D4, formic acid]', 'IC50', '< 10 nM'),
  ('COc1cc(-c2cn(C)c(=O)c3cnccc23)cc(OC)c1CN1CCC(OC2CCN(C(=O)CCOCCOc3cccc4c3C(=O)N(C3CCC(=O)NC3=O)C4=O)C2)CC1 (centres unmarked) [Compound D114]', 'IC50', '< 10 nM'),
  ('COc1cc(-c2cn(C)c(=O)c3cnccc23)cc(OC)c1CN(C)CC1CC12CCN(C(=O)CCOCCOc1cccc3c1C(=O)N(C1CCC(=O)NC1=O)C3=O)CC2 (centres unmarked) [Compound D163]', 'IC50', '< 10 nM'),
  ('COc1cc(-c2cn(C)c(=O)c3cnccc23)cc(OC)c1CN1CC2(CCN(C(=O)CCOCCOc3cccc4c3C(=O)N(C3CCC(=O)NC3=O)C4=O)CC2)C1 (centres unmarked) [Compound D85]', 'IC50', '10 to 100 nM'),
  ('COc1cc(-c2cn(C)c(=O)c3cnccc23)cc(OC)c1CN1CC2(CCC2NC(=O)CCOCCOc2ccc3c(c2)C(=O)N(C2CCC(=O)NC2=O)C3=O)C1 (centres unmarked) [Compound D115]', 'IC50', '10 to 100 nM');

* * *

The reader will find reported IC50 values listed item by item below.
- MEASUREMENT TARGET: BRD9 bromodomain (Homo sapiens (Human), UniProt Q9H8M2)
- Sequence (Q9H8M2 133-239): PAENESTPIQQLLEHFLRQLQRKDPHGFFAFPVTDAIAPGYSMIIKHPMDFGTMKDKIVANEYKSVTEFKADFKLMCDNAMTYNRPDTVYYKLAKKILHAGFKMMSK
- TEST: BRD9 bromodomain TR-FRET competition binding assay
- TEST CONTEXT: Table 4; competition with biotinylated ligand, 3 nM Flag-BRD9, 90 minutes
- Method: Procedure: His-Flag-BRD9 (P133-K239; Swiss Prot Q9H8M2; SEQ ID NO:1 mgsshhhhhhenlyfq/gdykddddkgslevlfqg/[…] […]) was cloned, expressed, purified, and then treated with TEV protease. Cleaved His tag was removed by purification. The binding of a biotinylated small molecule ligand of BRD9 was assessed via the LANCE® TR-FRET platform (PerkinElmer), and the compounds were assayed for inhibitory activity against this interaction. […]
PROPERTY: IC50

INSERT INTO assay_data (compound, measurement_target, property, endpoint_value) VALUES
  ('COc1cc(-c2cn(C)c(=O)c3cnccc23)cc(OC)c1CN1CCC2(CC1)CN(C(=O)COc1ccc3c(c1)C(=O)N(C1CCC(=O)NC1=O)C3=O)CCO2 (stereo not shown)', 'BRD9 bromodomain (Homo sapiens (Human), UniProt Q9H8M2)', 'IC50', '10 to 100 nM'),
  ('COc1cc(-c2cn(C)c(=O)c3cnccc23)cc(OC)c1CN1CCC2CCN(C(=O)CCOCCOc3ccc4c(c3)C(=O)N(C3CCC(=O)NC3=O)C4=O)CC21 (stereo not shown)', 'BRD9 bromodomain (Homo sapiens (Human), UniProt Q9H8M2)', 'IC50', '< 10 nM'),
  ('COc1cc(-c2cn(C)c(=O)c3cnccc23)cc(OC)c1CN1CCC2(C[C@@H]2NC(=O)CCOCCOc2ccc3c(c2)C(=O)N(C2CCC(=O)NC2=O)C3=O)C1 (stereo partly shown)', 'BRD9 bromodomain (Homo sapiens (Human), UniProt Q9H8M2)', 'IC50', '< 10 nM'),
  ('COc1cc(-c2cn(C)c(=O)c3cnccc23)cc(OC)c1CN1CC2(C1)CN(C(=O)CCCOc1cccc3c1C(=O)N(C1CCC(=O)NC1=O)C3=O)C2 (stereo not shown)', 'BRD9 bromodomain (Homo sapiens (Human), UniProt Q9H8M2)', 'IC50', '< 10 nM');

* * *

- MEASUREMENT TARGET: Nanoluciferase-BRD9 fusion protein (Homo sapiens (Human), UniProt Q9H8M2)
- TEST: SYO1 BRD9 NanoLuc degradation assay
- Format: cell-based
- TEST CONTEXT: Table 5B; SYO-1 cells expressing 3×FLAG-NLuc-BRD9, 6 hours; read-out: SYO1 BRD9-NanoLuc degradation IC50
PROPERTY: DC50

INSERT INTO assay_data (compound, measurement_target, property, endpoint_value) VALUES
  ('COc1cc(-c2cn(C)c(=O)c3cnccc23)cc(OC)c1CN1CCC2C(C1)CN2C(=O)C#Cc1ccc2c(c1)C(=O)N(C1CCC(=O)NC1=O)C2=O (stereo not drawn)', 'Nanoluciferase-BRD9 fusion protein (Homo sapiens (Human), UniProt Q9H8M2)', 'DC50', '< 10 nM'),
  ('COc1cc(-c2cn(C)c(=O)c3cnccc23)cc(OC)c1CN1CCC(n2ccc(COc3ccc4c(c3)C(=O)N(C3CCC(=O)NC3=O)C4=O)n2)CC1 (stereo not drawn)', 'Nanoluciferase-BRD9 fusion protein (Homo sapiens (Human), UniProt Q9H8M2)', 'DC50', '< 10 nM'),
  ('COc1cc(-c2cn(C)c(=O)c3cnccc23)cc(OC)c1CN1CC(CCN2CCC3(CC2)CC(Oc2ccc4c(c2)C(=O)N(C2CCC(=O)NC2=O)C4=O)C3)C1 (stereo not drawn)', 'Nanoluciferase-BRD9 fusion protein (Homo sapiens (Human), UniProt Q9H8M2)', 'DC50', '100 to 1000 nM');

Values were extracted from patent US11414416B1.
